Values were extracted from patent US20110033393A1.

# pIC50 per entry
Tested on: human TRPM5 ion channel (Homo sapiens)
Sequence (Q9NZQ8 whole entry): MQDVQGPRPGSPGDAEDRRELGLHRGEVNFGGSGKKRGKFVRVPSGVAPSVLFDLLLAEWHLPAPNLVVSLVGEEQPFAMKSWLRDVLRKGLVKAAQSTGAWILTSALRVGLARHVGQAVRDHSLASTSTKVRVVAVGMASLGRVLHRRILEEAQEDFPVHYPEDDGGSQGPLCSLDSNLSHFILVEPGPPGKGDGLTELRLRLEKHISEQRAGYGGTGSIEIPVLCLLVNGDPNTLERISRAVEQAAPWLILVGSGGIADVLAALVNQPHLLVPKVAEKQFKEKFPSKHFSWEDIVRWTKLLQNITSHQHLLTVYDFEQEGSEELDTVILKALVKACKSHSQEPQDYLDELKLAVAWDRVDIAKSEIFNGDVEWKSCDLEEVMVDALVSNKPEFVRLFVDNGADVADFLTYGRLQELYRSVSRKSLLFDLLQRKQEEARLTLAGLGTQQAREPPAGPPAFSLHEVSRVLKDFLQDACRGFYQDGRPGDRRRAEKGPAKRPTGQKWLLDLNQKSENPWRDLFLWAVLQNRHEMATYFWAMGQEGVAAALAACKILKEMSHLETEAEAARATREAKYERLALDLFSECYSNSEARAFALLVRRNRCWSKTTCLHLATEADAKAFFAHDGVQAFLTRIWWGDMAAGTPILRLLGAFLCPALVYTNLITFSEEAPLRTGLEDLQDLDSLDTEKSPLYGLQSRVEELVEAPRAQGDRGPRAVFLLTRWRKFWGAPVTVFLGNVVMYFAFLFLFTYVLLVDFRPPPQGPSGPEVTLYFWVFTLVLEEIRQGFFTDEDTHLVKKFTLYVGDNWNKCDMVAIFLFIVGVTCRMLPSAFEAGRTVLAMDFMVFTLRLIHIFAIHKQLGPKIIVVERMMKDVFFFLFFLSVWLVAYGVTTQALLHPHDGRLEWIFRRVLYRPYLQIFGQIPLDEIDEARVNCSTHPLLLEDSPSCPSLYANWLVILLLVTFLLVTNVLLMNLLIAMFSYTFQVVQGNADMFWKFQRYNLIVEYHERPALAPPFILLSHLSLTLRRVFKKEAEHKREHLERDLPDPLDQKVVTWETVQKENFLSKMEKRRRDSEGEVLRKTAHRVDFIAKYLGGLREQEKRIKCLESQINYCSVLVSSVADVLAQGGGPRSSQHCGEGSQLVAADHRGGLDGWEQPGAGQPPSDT
Method summary: FLIPR-based assay for membrane potential and calcium mobilization (TRPM5 inhibiting activity)
Setup conditions: live cells, 30° C., read-out: hTrpM5 IC50
Method: The activity of compounds of the present invention on human TRPM5 ion channel was measured using the FLIPR-based (fluorescent imaging plate reader) assay for membrane potential and calcium mobilization described in U.S. Patent Application Publication No. 2008/0249189 A1 in live cells, wherein the assay is performed at 30° C. Determinations of affinity and efficacy were derived from measurements of TRPM5 activity over a range of compound concentrations. […]
pIC50: −log10 of the molar value.

Previously resolved entries follow.
>>> df
                                   molecule  readout_value
0  Cc1cn(CCC(=O)N/N=C/c2ccc3cccnc3c2)c2ccccc12 [Example 68]         < 4.52
1  O=C(N/N=C/c1ccc2ncccc2n1)[C@@H]1C[C@H]1c1cccc(Cl)c1 (relative stereo) [Example 31]          ~4.30

Given the entry Cc1ccc2cc(/C=N/NC(=O)CCn3cc(C)c4ccccc43)ccc2n1 [Example 69] , what pIC50 was observed with human TRPM5 ion channel (Homo sapiens)?
< 4.52
